The following compounds are shown together with reported Ki values.
Experimental system: Carbonic anhydrase [110-330] (Coastal plain yellowtops, UniProt P46510)
Sequence (P46510 110-330): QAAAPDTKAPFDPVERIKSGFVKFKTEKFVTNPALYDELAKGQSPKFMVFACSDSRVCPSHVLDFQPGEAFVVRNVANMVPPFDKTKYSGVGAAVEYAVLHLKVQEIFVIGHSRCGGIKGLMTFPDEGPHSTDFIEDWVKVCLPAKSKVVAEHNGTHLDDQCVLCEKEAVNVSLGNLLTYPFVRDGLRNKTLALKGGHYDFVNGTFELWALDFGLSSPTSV
Where a name gives a salt, the structure may show the parent alone.

>  <Compound>
O=C(O)CC(=O)O [sodium malonate]

>  <Experimental system>
Carbonic anhydrase [110-330] (Coastal plain yellowtops, UniProt P46510)

>  <Unit symbol>
µM

>  <Result modifier>
=

>  <Ki>
100

$$$$
>  <Compound>
CC(=O)C(=O)O [Pyruvate]

>  <Experimental system>
Carbonic anhydrase [110-330] (Coastal plain yellowtops, UniProt P46510)

>  <Unit symbol>
µM

>  <Result modifier>
>

>  <Ki>
10000

$$$$
>  <Compound>
O=C(O)CC(O)C(=O)O (stereo unspecified)

>  <Experimental system>
Carbonic anhydrase [110-330] (Coastal plain yellowtops, UniProt P46510)

>  <Unit symbol>
µM

>  <Result modifier>
=

>  <Ki>
92.5

$$$$
>  <Compound>
O=C(O)c1c(F)c(F)cc(F)c1F [2,3,5,6-F4-Benzoate]

>  <Experimental system>
Carbonic anhydrase [110-330] (Coastal plain yellowtops, UniProt P46510)

>  <Unit symbol>
µM

>  <Result modifier>
=

>  <Ki>
51.2

$$$$
>  <Compound>
O=C(O)CC(O)(CC(=O)O)C(=O)O [SODIUM CITRATE]

>  <Experimental system>
Carbonic anhydrase [110-330] (Coastal plain yellowtops, UniProt P46510)

>  <Unit symbol>
µM

>  <Result modifier>
=

>  <Ki>
41.4

$$$$
>  <Compound>
O=CO

>  <Experimental system>
Carbonic anhydrase [110-330] (Coastal plain yellowtops, UniProt P46510)

>  <Unit symbol>
µM

>  <Result modifier>
=

>  <Ki>
97.5

$$$$
>  <Compound>
O=C(O)/C=C\C(=O)O [sodium maleate]

>  <Experimental system>
Carbonic anhydrase [110-330] (Coastal plain yellowtops, UniProt P46510)

>  <Unit symbol>
µM

>  <Result modifier>
=

>  <Ki>
73.2

$$$$
>  <Compound>
O=C(O)c1ccccc1 [SODIUM BENZOATE]

>  <Experimental system>
Carbonic anhydrase [110-330] (Coastal plain yellowtops, UniProt P46510)

>  <Unit symbol>
µM

>  <Result modifier>
=

>  <Ki>
64.5

$$$$
>  <Compound>
CCCC(=O)O

>  <Experimental system>
Carbonic anhydrase [110-330] (Coastal plain yellowtops, UniProt P46510)

>  <Unit symbol>
µM

>  <Result modifier>
=

>  <Ki>
82.3

$$$$
>  <Compound>
O=C(O)C(=O)O

>  <Experimental system>
Carbonic anhydrase [110-330] (Coastal plain yellowtops, UniProt P46510)

>  <Unit symbol>
µM

>  <Result modifier>
=

>  <Ki>
93

$$$$
>  <Compound>
CC(=O)O [sodium acetate]

>  <Experimental system>
Carbonic anhydrase [110-330] (Coastal plain yellowtops, UniProt P46510)

>  <Unit symbol>
µM

>  <Result modifier>
=

>  <Ki>
95.1

$$$$

The values you see were collected from BindingDB's records for doi:10.3109/14756366.2013.813942.
